// yeast fitness lookup, one value per entry
B1: tRNA (parent)
chain: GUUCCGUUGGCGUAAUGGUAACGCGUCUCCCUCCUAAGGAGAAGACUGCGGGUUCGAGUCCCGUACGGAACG

# Variants of: B1
# assay.comment: yeast fitness relative to wild type (ratio to wild type); higher = fitter; tRNA-Arg(CCU), competitive growth, 37 C, YPD
This sample holds only a part of the variants without activity.

variant.name | yeast fitness
U7C A20G C61U | 0.587
C27G G39A | 0.615
U8A C11A C27U | 0.546
A15G A20U U26C C29G U32A | 0.591
C5U G38C G41C C60G | ≤ 0.5
G9C C29A C34U | ≤ 0.5
C5U A15U U54A C55U C66A | ≤ 0.5
U2G G10C | 0.527
U8A C34A A65U | ≤ 0.5
U2C | 1
C4U A14G A45C G63C | ≤ 0.5
U3G U8A C31A C49A | ≤ 0.5
U3A A14G G23C | 0.716
C24U G38A G51A G52C | 0.634
U8C G23C | 0.642
G10C A36U U53A C60A | 0.548
U16C G25A U28C G52C | ≤ 0.5
A14G U54C | 0.633
A37U G44A C66U | 0.535
U16A A36U | 0.552
G9A G10C G25C C33U C62A C66U | ≤ 0.5
C27G G41A C49G G56C | ≤ 0.5
G23C C31A C62U A70G | ≤ 0.5
C30A A36C G38A | ≤ 0.5
C4A G23A A40C U53C | ≤ 0.5
G17A C31U | 0.74
G48A G67A | 0.91
A20U G41C G56C | 0.574
C5U C11A A21C C27G | 0.564
C5U G41A C55G C66U | ≤ 0.5
U19G A20U C30U G48A A70U | ≤ 0.5
C29A A40U A45C C46A C49A A57G | ≤ 0.5
G23A A42G | 0.747
U19G A20U U53A G56A A65U | ≤ 0.5
U19G U26A U28C | ≤ 0.5
A15C C31A U59C A69G | ≤ 0.5
U7A C34A G56C | 0.541
C27U A40G G44A C55U A69U | ≤ 0.5
C4G C22U C49A | ≤ 0.5
A20C C49U | 1.03
U7A C29G C34G A36G U54C A57G | ≤ 0.5
U2A C24U A70C | 0.894
U3A A20U C31G | 0.535
G9C A36C C49G A65G | 0.681
G12A G41A G50A | ≤ 0.5
A15C G56A C61U C66U | ≤ 0.5
U19G A20C U26C G41A G63A C66U | ≤ 0.5
C29U C33A G38C | 0.638
G17C C31A C60A A65U | 0.532
C11G C29A U35C A43C | ≤ 0.5
C29G A57C C66G | ≤ 0.5
U3C C27U | 0.941
C33G A40U A70G | 0.545
G10C U19A C30G A40C G67C | ≤ 0.5
G25A U32C G41A | 0.546
C4G A14U C24U C49G G63A | ≤ 0.5
C11A A14C C34A A36G | ≤ 0.5
A21C C24A C49U | ≤ 0.5
C5A G17A C46A C55G | ≤ 0.5
C5G G6A A15G | ≤ 0.5
C22G A45U A65C | 0.534
G9A C27G A37G U53A | ≤ 0.5
A15C G25C C29U U35C A43U A70U | ≤ 0.5
G12C U54A | 0.701
A15G A70C | 1.04
C24U C66A | 0.618
G10C A36G C49U | 0.551
A15G A37G C55A | ≤ 0.5
A45C G48A G67A | 0.829
C62U C66U G67A | 0.52
U16G G18C U59A A65U C66A | ≤ 0.5
G9C U26A A40C C55U C66A A69U | ≤ 0.5
